# System: OVCAR-3 ovarian
# METHOD DESCRIPTION: NCI-60 one-dose screen, 48 h
# COND: 10 µM unless noted
Compounds without any hit were thinned out: in the full panel of roughly 83,000, 20% have a hit. The source made the active and inactive calls. Rule for the calls: active = growth percent below 10; inactive = the rest.
Outcome (select one): active, inactive

>>> assigned_class("C=C1C(=O)O[C@H]2[C@H]1CC/C(COC(=O)NCc1ccc(Cn3c(=O)sn(CCCCl)c3=O)cc1)=C\\CC[C@@]1(C)O[C@@H]21")
"active"
>>> assigned_class("O=C(CC12CC3CC(CC(C3)C1)C2)NCCOCCOCCNC(=O)c1cc2c(o1)C(=O)c1ccccc1C2=O")
"active"
>>> assigned_class("CCOC(=O)c1c(C)nc2c(c1N)/C(=C/c1ccc(OC)cc1)C(=O)N2Cc1ccc(F)cc1")
"active"
>>> assigned_class("CCCCCCNCc1cc(C(C)(C)C)cc(CNCCCCCC)c1O")
"active"
>>> assigned_class("Cc1c(C)c2c(c(C)c1NC(=O)/C=C\\C(=O)O)CCC(C)(CCCC(C)CCCC(C)CCCC(C)C)O2 (centres undefined)")
"inactive"

## Task // return assay outcome for O=S(=O)(Nc1ccsc1-c1nc(-c2ccccc2)no1)c1cc(Cl)cc(Cl)c1
## Result inactive

* * *

# Tested on: TK-10 renal
# METHOD DESCRIPTION: NCI-60 one-dose screen, 48 h (100 = growth as untreated, 0 = no growth, -100 = all killed)
# COND: 10 µM unless noted
Compounds without any hit were thinned out: in the full panel of roughly 83,000, 20% have a hit.
Give rule met when the value for growth is at least 80%. Give rule not met when it is less.

Please review the following examples before continuing.
>>> assigned_class("CCCN1CCN(c2ccc3nc(-c4ccc5nc(-c6cc(OC)c(OC)c(OC)c6)[nH]c5c4)[nH]c3c2)CC1")
"rule met"
>>> assigned_class("Cc1cc(N(CCCNc2ccnc3cc(Cl)ccc23)Cc2ccccn2)nc(N2CCCC2)n1")
"rule met"
>>> assigned_class("C#C[C@]1(O)CC[C@H]2[C@@H]3CC=C4c5sc(N=C(N)N)nc5CC[C@]4(C)[C@H]3CC[C@@]21C")
"rule not met"
>>> assigned_class("CSc1nc2sc3cc(Cl)ccc3n2c(=N)c1C#N")
"rule met"

## Task hey, is growth for this one >= 80%? COc1cc2oc(-c3cccc(C(=O)Nc4ccc(C)cc4)c3)cc(=O)c2c(OC)c1OC
## Result rule not met

## Task In plain terms: is recorded growth at least 80% for O[C@H]1CO[C@H]2[C@@H]1OC[C@@H]2Oc1ccc(Nc2ccnc(Nc3ccc(O[C@H]4CO[C@H]5[C@@H]4OC[C@@H]5O)c(Cl)c3)n2)cc1Cl ?
## Result rule not met

## Task Evaluate COC(=O)/C(=C\c1ccc(OC)cc1)C(=O)N1c2ccccc2Sc2ccccc21 : growth at minimum 80%?
## Result rule met

* * *

Please provide measured growth for the entries that follow.
# System: SK-MEL-5 melanoma
# METHOD DESCRIPTION: NCI-60 one-dose screen, 48 h (100 = growth as untreated, 0 = no growth, -100 = all killed)
# COND: 10 µM unless noted
Compounds without any hit were thinned out: in the full panel of roughly 83,000, 20% have a hit.
Numbers only, in %.

A selection of reference data follows.
>>> reading("C=C1c2c(C)nn(-c3ccc(N)cc3)c2N(C)C23CC1C1(C)c4c(C)nn(-c5ccc(N)cc5)c4N(C)C(C)(CC12)C3 (configuration not stated)")
52.9
>>> reading("CCn1c(Sc2nnc(NC(C)=O)s2)nc2c1c(=O)n(C)c(=O)n2C")
98.6
>>> reading("Cc1c2c(cn1Cc1ccccc1)CCc1cn[nH]c1-2")
89
>>> reading("COc1ccc(-c2nc3sccn3c2/C=C/C(=O)c2c[nH]c3ccccc23)cc1")
58.8
>>> reading("C=C(CNCCc1ccc(O)cc1)[C@@H]1CC[C@]2(COC3CCCCO3)CC[C@]3(C)[C@H](CC[C@@H]4[C@@]5(C)CCC(NCCO)C(C)(C)[C@@H]5CC[C@]43C)[C@@H]12 (some centres not stated)")
-95.4
>>> reading("O[C@H]1CO[C@H]2[C@@H]1OC[C@@H]2Oc1ccc(Nc2nc(Nc3ccc(F)c(Cl)c3)ncc2F)cc1Cl")
-90.5
>>> reading("C[C@@H]1CC[C@@H]2[C@@H]1[C@H](OC(=O)/C=C/c1ccccc1)[C@]1(C3CCCCC3)C[C@@H](NC(=O)CO)[C@@]2(C)O1")
104
>>> reading("CCOC(=O)c1cnn2c(-c3ccc(Cl)cc3)nc(NCc3ccccc3)nc12")
86

Hi, could you look up growth for each item in my list?
1. C/C(Cc1ccc(Cl)cc1)=C(/c1ccc(Cl)cc1)c1ccc(OCCN(C)C)cc1
2. COc1cc(C(=O)/C=C/c2c(-c3ccc(F)cc3)nc3ncccn23)cc(OC)c1OC
3. O=c1cc(-c2ccc(OCc3ccccc3)cc2)oc2c(I)c(OCc3ccccc3)cc(OCc3ccccc3)c12
4. COc1ccc(/C=C(\C#N)n2nnc3ccccc32)cc1

## Result
1: 67.5; 2: 30.5; 3: 85.1; 4: 6.7

Please give growth for each item listed below.
1. O=C(CC12CC3CC(CC(C3)C1)C2)NCCOCCOCCOCCNC(=O)c1cc2c(o1)C(=O)c1ccccc1C2=O
2. CCC(=O)OC1=C(C)SC2=NC(c3ccc(Cl)c(Cl)c3)=CC(c3cc(OC)c(OC)c(OC)c3)N21 (configuration not stated)
3. C=C1C(=O)O[C@H]2[C@H]1CC/C(C(=O)NCCCCCCCCNC(=O)/C1=C/CC[C@@]3(C)O[C@H]3[C@H]3OC(=O)C(=C)[C@@H]3CC1)=C\CC[C@@]1(C)O[C@@H]21
4. Cc1ccccc1NC(=O)CN(C)C
5. CCN(CC)CCOC(=O)Nc1ccccc1Cl
6. O=C(NCCOCCOCCOCCNC(=O)c1cc2c(o1)C(=O)c1ccccc1C2=O)NC12CC3CC(CC(C3)C1)C2
7. CS(=O)(=O)c1ccc(-c2[nH]c3ccc(F)cc3c2/C=N/O)cc1
8. NS(=O)(=O)c1cn(-c2ncnc3nc[nH]c23)ccc1=O

## Result
[-98.4, 98.7, 98.3, 105, 105, -97.7, 103, 97.6]

Each of the following entries comes with a recorded value; kindly state growth for each.
1. CCCCNC(=O)NS(=O)(=O)c1ccc(N2N=C(c3ccc(C)cc3C)CC2c2ccc(N(C)C)cc2)cc1 (configuration not stated)
2. CC(C)OC(=O)OCOP(=O)(OCOC(=O)OC(C)C)C1CCCN(O)C1=O (configuration not stated)
3. CCOc1cc(C2C(Cl)C(=O)N2n2cnnc2)ccc1O (configuration not stated)
4. CCOC(=O)c1nnn(-c2ccccc2)c1C1=CN(C)CCC1
5. COC(=O)[C@]12CC[C@@H](C)[C@H](C)[C@@H]1C1=CC[C@@H]3[C@@]4(C)C(C=O)=C[C@@](C)(CO)C4=CC[C@@]3(C)[C@]1(C)CC2

## Result
1. 47
2. 30.9
3. 106
4. 105
5. 35.2

# batch size: 6; output growth per entry
1. COc1ccccc1NC(=O)Nc1ccc(-c2nc3ccccc3o2)cc1
2. COC(=O)c1ccc(CSc2nnc(-c3ccncc3)o2)cc1
3. CCCCOC(=O)c1ccc(NC(=O)C(C)N2CCOCC2)cc1 (configuration not stated)
4. CC/C=C/[C@@H]1C=C[C@@H]2CCC[C@H]2[C@@H]1CC[C@H](O)[C@H](C)N
5. O=S(=O)(Cc1ccccc1)c1nc2ccccc2s1
6. CC(C)CCC[C@@H](C)[C@H]1CCC2C3=CCC4C(=O)C=CC(=O)C4C3CC[C@@]21C (some centres not stated)

## Result
92.6
112
104
-92.8
67.4
-48.5

For each of the items listed, what is its growth?
1. CC1=CC(=O)C(C(C)C)=CC1=Nc1cc(Br)c(O)c(Br)c1
2. CN(C)CN1CCN(c2ccc3nc(-c4ccc5nc(-c6ccc(C(F)(F)F)cc6)[nH]c5c4)[nH]c3c2)CC1
3. Cc1nc(Nc2ccc(NC(=S)Nc3ccccc3)cc2)nc2nc(SCc3ccccc3)[nH]c(=O)c12
4. COc1cc(NC(=O)c2cccc(-c3cc(=O)c4c(OC)c(OC)c(OC)cc4o3)c2)cc(OC)c1OC
5. C=C(Cl)COC(=O)C(C)(C)O

## Result
1. 13.9
2. 23.6
3. 99.7
4. 8.34
5. 106

Entry O=C1N/C(=N/O)S/C1=C/c1cn(-c2ccccc2)nc1-c1ccccc1 — recorded growth = 102
